Form field: unbound brain-to-plasma partition coefficient (Kp,uu) (one value per entry).
method description: Brain-plasma partition
Type: in vivo
condition parameters: rat, unbound brain-plasma ratio, read-out: Brain-Plasma Kp,ω
readout type: unbound brain-to-plasma partition coefficient (Kp,uu)

# compound, observed result
records = [
    ("c1cc2cc(Nc3n[nH]c4nccnc34)ccc2c(O[C@@H]2CCOC2)n1 [Compound 58]", 0.33),
    ("c1cnc2c(Nc3ccc4c(O[C@H]5CCOC5)nccc4c3)n[nH]c2c1 [Compound 64]", 0.2),
    ("COCCOc1nccc2cc(Nc3n[nH]c4cccnc34)ccc12 [Compound 67]", 0.2),
    ("c1cnc2[nH]nc(Nc3ccc4c(O[C@@H]5CCOC5)nccc4c3)c2c1 [Compound 65]", 0.09),
    ("c1cc2cc(Nc3n[nH]c4nccnc34)ccc2c(OCC2CCOCC2)n1 [Compound 82]", 0.09),
]

---

method description: Human intrinsic and hepatic clearance
Assay type: in vitro ADME
Form field: CLint scaled (one value per entry).

# compound, units symbol, CLint scaled
rows = [
    ("c1cnc2[nH]nc(Nc3ccc4c(OCC5COCCO5)nccc4c3)c2c1 (stereo not drawn) [Compound 80]", "mL/min/kg", 22.4),
    ("C[C@H]1OCC[C@H]1Oc1nccc2cc(Nc3n[nH]c4cccnc34)ccc12 [Compound 91]", "mL/min/kg", 109),
    ("c1cnc2c(Nc3ccc4c(O[C@@H]5CCOC5)nccc4c3)n[nH]c2c1 [Compound 63]", "mL/min/kg", 57.8),
    ("c1cc2cc(Nc3n[nH]c4nccnc34)ccc2c(OCC2CCOCC2)n1 [Compound 82]", "mL/min/kg", 67.6),
    ("c1cc2cc(Nc3n[nH]c4nccnc34)ccc2c(OCC2COCCO2)n1 (stereo not drawn) [Compound 86]", "mL/min/kg", 19),
    ("c1cc2cc(Nc3n[nH]c4nccnc34)ccc2c(OCC2CCOC2)n1 (stereo not drawn) [Compound 85]", "mL/min/kg", 41.2),
    ("c1cnc2[nH]nc(Nc3ccc4c(OCCN5CCOCC5)nccc4c3)c2c1 [Compound 94]", "mL/min/kg", 87.6),
    ("c1cnc2c(Nc3ccc4c(OCC5CCCOC5)nccc4c3)n[nH]c2c1 (stereo not drawn) [Compound 72]", "mL/min/kg", 55.7),
    ("C[C@@H]1C[C@H](Oc2nccc3cc(Nc4n[nH]c5cccnc45)ccc23)CO1 [Compound 89]", "mL/min/kg", 37.8),
    ("c1cc2cc(Nc3n[nH]c4nccnc34)ccc2c(O[C@@H]2CCOC2)n1 [Compound 58]", "mL/min/kg", 32.4),
    ("c1cnc2c(Nc3ccc4c(O[C@H]5CCCOC5)nccc4c3)n[nH]c2c1 [Compound 61]", "mL/min/kg", 44),
    ("COCCOc1nccc2cc(Nc3n[nH]c4cccnc34)ccc12 [Compound 67]", "mL/min/kg", 35.2),
]

---

method description: Brain-plasma partition
Type: in vivo
condition parameters: rat
Outcome: T for Kp of at least 1; F for anything lower.

# compound, label
records = [
    ("c1cnc2c(Nc3ccc4c(OCC5CCCCO5)nccc4c3)n[nH]c2c1 (stereo not shown)", "T"),
    ("COCCOc1nccc2cc(Nc3n[nH]c4cccnc34)ccc12", "T"),
    ("c1cnc2c(Nc3ccc4c(OCC5CCCOC5)nccc4c3)n[nH]c2c1 (stereo not shown)", "F"),
    ("CO[C@H](C)COc1nccc2cc(Nc3n[nH]c4cccnc34)ccc12", "T"),
    ("C[C@H]1C[C@H](Oc2nccc3cc(Nc4n[nH]c5ncccc45)ccc23)CO1", "T"),
    ("c1cc2cc(Nc3n[nH]c4nccnc34)ccc2c(OCC2CCOCC2)n1", "F"),
    ("c1cc2cc(Nc3n[nH]c4nccnc34)ccc2c(OCC2COCCO2)n1 (stereo not shown)", "F"),
    ("c1cnc2[nH]nc(Nc3ccc4c(OCC5COCCO5)nccc4c3)c2c1 (stereo not shown)", "F"),
    ("c1cnc2[nH]nc(Nc3ccc4c(OCC5CCCCO5)nccc4c3)c2c1 (stereo not shown)", "T"),
    ("c1cnc2[nH]nc(Nc3ccc4c(OCC5CCOC5)nccc4c3)c2c1 (stereo not shown)", "T"),
    ("COCCOc1nccc2cc(Nc3n[nH]c4ncccc34)ccc12", "F"),
    ("c1cnc2c(Nc3ccc4c(O[C@H]5CCCOC5)nccc4c3)n[nH]c2c1", "T"),
    ("c1cnc2c(Nc3ccc4c(OCC5COCCO5)nccc4c3)n[nH]c2c1 (stereo not shown)", "F"),
    ("c1cnc2c(Nc3ccc4c(O[C@@H]5CCOC5)nccc4c3)n[nH]c2c1", "T"),
    ("c1cnc2c(Nc3ccc4c(OCC5CCOCC5)nccc4c3)n[nH]c2c1", "T"),
    ("c1cnc2c(Nc3ccc4c(OC5CCOCC5)nccc4c3)n[nH]c2c1", "T"),
    ("CCOCCOc1nccc2cc(Nc3n[nH]c4cccnc34)ccc12", "T"),
]

---

method description: Kinetic solubility
Type: physicochemical
condition parameters: kinetic from dmso stock
Form field: solubility kinetic (one value per entry).
readout type: solubility kinetic

# molecule, observed result
data = [
    ("c1cc2cc(Nc3n[nH]c4nccnc34)ccc2c(OCC2COCCO2)n1 (stereo not drawn)", "0.6 µM"),
    ("C[C@H]1C[C@H](Oc2nccc3cc(Nc4n[nH]c5cccnc45)ccc23)CO1", "0.7 µM"),
    ("COCCOc1nccc2cc(Nc3n[nH]c4cc(F)cnc34)ccc12", "1 µM"),
    ("Fc1cnc2c(Nc3ccc4c(O[C@H]5CCOC5)nccc4c3)n[nH]c2c1", "0.4 µM"),
    ("c1cnc2c(Nc3ccc4c(O[C@@H]5CCCOC5)nccc4c3)n[nH]c2c1", "10.3 µM"),
    ("c1cnc2c(Nc3ccc4c(OCC5COCCO5)nccc4c3)n[nH]c2c1 (stereo not drawn)", "2.4 µM"),
    ("CO[C@H](C)COc1nccc2cc(Nc3n[nH]c4cccnc34)ccc12", "2.9 µM"),
    ("C[C@@H]1C[C@H](Oc2nccc3cc(Nc4n[nH]c5cccnc45)ccc23)CO1", "2.7 µM"),
    ("c1cnc2c(Nc3ccc4c(O[C@H]5CCOC5)nccc4c3)n[nH]c2c1", "4.9 µM"),
    ("c1cc2cc(Nc3n[nH]c4nccnc34)ccc2c(OCC2CCOCC2)n1", "0.5 µM"),
    ("COCCOc1nccc2cc(Nc3n[nH]c4ccccc34)ccc12", "1.6 µM"),
    ("c1cc2cc(Nc3n[nH]c4nccnc34)ccc2c(OCC2CCOC2)n1 (stereo not drawn)", "0.6 µM"),
    ("c1cc2cc(Nc3n[nH]c4nccnc34)ccc2c(O[C@H]2CCOC2)n1", "2.6 µM"),
    ("COCCOc1nccc2cc(Nc3n[nH]c4cccnc34)ccc12", "5.5 µM"),
    ("COCCOc1nccc2cc(Nc3n[nH]c4ncc(F)cc34)ccc12", "0.3 µM"),
    ("Fc1cnc2c(Nc3ccc4c(OCC5COCCO5)nccc4c3)n[nH]c2c1 (stereo not drawn)", "1.1 µM"),
    ("C[C@H]1OCC[C@H]1Oc1nccc2cc(Nc3n[nH]c4cccnc34)ccc12", "3.3 µM"),
    ("Fc1cnc2[nH]nc(Nc3ccc4c(OC5CCOCC5)nccc4c3)c2c1", "0.7 µM"),
]

---

method description: Rat in vivo clearance
condition parameters: read-out: Rat in Vivo CL
Classes (clearance): band 1 (below 40 mL/min/kg), band 2 (40 mL/min/kg to below 70 mL/min/kg), band 3 (70 mL/min/kg or more)

# compound, label
rows = [
    ("c1cnc2c(Nc3ccc4c(O[C@H]5CCOC5)nccc4c3)n[nH]c2c1", "band 2"),
    ("CO[C@H](C)COc1nccc2cc(Nc3n[nH]c4cccnc34)ccc12", "band 3"),
    ("c1cnc2c(Nc3ccc4c(O[C@H]5CCCOC5)nccc4c3)n[nH]c2c1", "band 2"),
    ("C[C@H]1C[C@H](Oc2nccc3cc(Nc4n[nH]c5ncccc45)ccc23)CO1", "band 2"),
    ("c1cnc2c(Nc3ccc4c(OCC5COCCO5)nccc4c3)n[nH]c2c1 (stereo not shown)", "band 1"),
    ("c1cc2cc(Nc3n[nH]c4nccnc34)ccc2c(OCC2CCOC2)n1 (stereo not shown)", "band 1"),
    ("c1cnc2c(Nc3ccc4c(OC5CCOCC5)nccc4c3)n[nH]c2c1", "band 3"),
    ("COCCOc1nccc2cc(Nc3n[nH]c4cccnc34)ccc12", "band 3"),
    ("c1cc2cc(Nc3n[nH]c4nccnc34)ccc2c(O[C@@H]2CCOC2)n1", "band 3"),
]

---

method description: Rat intrinsic and hepatic clearance
Assay type: in vitro ADME
Hi! Just check whether Rat CLhep is below 50 mL/min/kg. Below gives class 1, equal or above gives class 0.

# molecule, label
data = [
    ("C[C@@H]1C[C@H](Oc2nccc3cc(Nc4n[nH]c5cccnc45)ccc23)CO1", "class 0"),
    ("c1cnc2c(Nc3ccc4c(O[C@H]5CCCOC5)nccc4c3)n[nH]c2c1", "class 0"),
    ("c1cc2cc(Nc3n[nH]c4nccnc34)ccc2c(OCC2CCOC2)n1 (stereo not drawn)", "class 1"),
    ("c1cc2cc(Nc3n[nH]c4nccnc34)ccc2c(O[C@@H]2CCOC2)n1", "class 1"),
    ("c1cnc2[nH]nc(Nc3ccc4c(OCCN5CCOCC5)nccc4c3)c2c1", "class 0"),
    ("COCCOc1nccc2cc(Nc3n[nH]c4ccccc34)ccc12", "class 0"),
    ("c1cnc2c(Nc3ccc4c(OCC5CCCOC5)nccc4c3)n[nH]c2c1 (stereo not drawn)", "class 0"),
    ("c1cnc2c(Nc3ccc4c(OC5CCOCC5)nccc4c3)n[nH]c2c1", "class 1"),
    ("c1cnc2c(Nc3ccc4c(OCC5COCCO5)nccc4c3)n[nH]c2c1 (stereo not drawn)", "class 1"),
    ("COCCOc1nccc2cc(Nc3n[nH]c4cccnc34)ccc12", "class 1"),
    ("Fc1cnc2c(Nc3ccc4c(O[C@H]5CCOC5)nccc4c3)n[nH]c2c1", "class 1"),
    ("c1cnc2c(Nc3ccc4c(OCCN5CCOCC5)nccc4c3)n[nH]c2c1", "class 0"),
    ("COCCOc1nccc2cc(Nc3n[nH]c4ncccc34)ccc12", "class 0"),
    ("C[C@H]1OCC[C@H]1Oc1nccc2cc(Nc3n[nH]c4ncccc34)ccc12", "class 0"),
    ("c1cc2cc(Nc3n[nH]c4nccnc34)ccc2c(OCC2CCCCO2)n1 (stereo not drawn)", "class 0"),
    ("CO[C@H](C)COc1nccc2cc(Nc3n[nH]c4nccnc34)ccc12", "class 1"),
    ("CO[C@H](C)COc1nccc2cc(Nc3n[nH]c4cccnc34)ccc12", "class 0"),
    ("C[C@H]1OCC[C@H]1Oc1nccc2cc(Nc3n[nH]c4cccnc34)ccc12", "class 0"),
    ("c1cc2cc(Nc3n[nH]c4nccnc34)ccc2c(OCC2COCCO2)n1 (stereo not drawn)", "class 1"),
    ("C[C@H]1C[C@H](Oc2nccc3cc(Nc4n[nH]c5ncccc45)ccc23)CO1", "class 1"),
    ("c1cnc2c(Nc3ccc4c(O[C@H]5CCOC5)nccc4c3)n[nH]c2c1", "class 1"),
    ("C[C@H]1C[C@H](Oc2nccc3cc(Nc4n[nH]c5cccnc45)ccc23)CO1", "class 1"),
    ("c1cnc2c(Nc3ccc4c(O[C@@H]5CCCOC5)nccc4c3)n[nH]c2c1", "class 0"),
    ("c1cc2cc(Nc3n[nH]c4nccnc34)ccc2c(OCC2CCOCC2)n1", "class 1"),
    ("COCCOc1nccc2cc(Nc3n[nH]c4ncc(F)cc34)ccc12", "class 0"),
    ("Fc1cnc2c(Nc3ccc4c(OCC5COCCO5)nccc4c3)n[nH]c2c1 (stereo not drawn)", "class 1"),
    ("COCCOc1nccc2cc(Nc3n[nH]c4nccnc34)ccc12", "class 1"),
    ("c1cnc2c(Nc3ccc4c(OCC5CCCCO5)nccc4c3)n[nH]c2c1 (stereo not drawn)", "class 0"),
]
